- Tested target: IRAK4 (Homo sapiens (Human))
- Experimental protocol: IRAK4 Degradation HiBiT Assay
- Measurement context: Jurkat, read-out: IRAK4 HiBit Dmax, C-terminal HiBiT-tagged Jurkat cells, 4 hrs; Tables 2-3
- Sequence (Q9NWZ3 whole entry): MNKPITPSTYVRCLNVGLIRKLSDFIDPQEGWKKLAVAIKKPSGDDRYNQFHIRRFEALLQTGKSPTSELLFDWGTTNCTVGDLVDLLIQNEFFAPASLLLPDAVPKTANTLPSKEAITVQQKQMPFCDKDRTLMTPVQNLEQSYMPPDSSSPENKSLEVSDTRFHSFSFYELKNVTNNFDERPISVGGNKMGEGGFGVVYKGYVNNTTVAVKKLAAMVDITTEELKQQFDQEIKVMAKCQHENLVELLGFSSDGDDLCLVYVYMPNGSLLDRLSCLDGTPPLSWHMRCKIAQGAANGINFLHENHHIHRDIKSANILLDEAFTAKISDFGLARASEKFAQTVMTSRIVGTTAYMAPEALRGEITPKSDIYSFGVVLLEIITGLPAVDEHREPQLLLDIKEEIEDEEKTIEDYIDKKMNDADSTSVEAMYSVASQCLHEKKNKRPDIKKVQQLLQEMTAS
Measured attribute: Dmax (%)
Quick note: give the figure in %, leave out the unit.

Some solved entries appear below for comparison.
[[record]]
compound = "Cc1ncsc1-c1ccc(CNC(=O)[C@@H]2C[C@@H](O)CN2C(=O)[C@@H](NC(=O)C2(F)CC2)C(C)(C)C)c(OCCOCCC(=O)N2CCN(c3nnc(-c4cnc(-c5ccc6cc(C#N)cnn56)cc4NC(C)C)s3)CC2)c1"
units = "%"
endpoint_value = 118

[[record]]
compound = "Cc1ncsc1-c1ccc(CNC(=O)[C@@H]2C[C@@H](O)CN2C(=O)[C@@H](NC(=O)CCCC(=O)N2CCN(c3nnc(-c4cnc(-c5ccc6cc(C#N)cnn56)cc4NC(C)C)s3)CC2)C(C)(C)C)cc1"
units = "%"
endpoint_value = 100

[[record]]
compound = "CC(C)Nc1cc(-c2ccc3cc(C#N)cnn23)ncc1-c1nnc(N2CCN(C(=O)C3CCN(Cc4ccc5c(c4)C(=O)N(C4CCC(=O)NC4=O)C5=O)CC3)CC2)s1 (stereo not drawn)"
units = "%"
endpoint_value = 101

[[record]]
compound = "CC(C)Nc1cc(-c2ccc3cc(C#N)cnn23)ncc1-c1nnc(N2CCN(C(=O)C3CCN(CC4CCN(c5ccc(-c6nn(C7CCC(=O)NC7=O)c(=O)n6C)cc5)CC4)CC3)CC2)s1 (stereo not drawn)"
units = "%"
endpoint_value = 102

[[record]]
compound = "CC[C@@H]1[C@H](F)C(=O)N[C@@H]1COc1ncc(C#CCN2CCC3(CC2)CCN(c2ncc(C(=O)N[C@H](C(=O)N4C[C@H](O)C[C@H]4C(=O)NCc4ccc(-c5scnc5C)cc4)C(C)(C)C)cn2)CC3)c2cc(C(N)=O)c(OC)cc12 [Comparative b1, reference compound]"
units = "%"
endpoint_value = 95


Incoming: If you can, please state the reported Dmax value of NC(=O)c1nn(-c2ccc(C(=O)NCCOCCOCCNc3cccc4c3C(=O)N(C3CCC(=O)NC3=O)C4=O)cc2)cc1NC(=O)c1coc(-c2ccnc(NCC(F)(F)F)c2)n1 (stereo not drawn) [Comparative Compound a2, reference compound] .
Outgoing: 88

---

- Tested target: IRAK4 (Homo sapiens (Human), UniProt Q9NWZ3)
- Experimental protocol: IRAK4 Biochemical HTRF Kinase Assay
- Measurement context: Table 5; multiple runs; read-out: IRAK4 HTRF biochemical: IC50
- Sequence (Q9NWZ3 whole entry, species assumed): as the sequence (Q9NWZ3 whole entry) above
Each entry below lists one item and its recorded IC50 value.
Quick note: give the figure in nM, leave out the unit.

Some solved entries appear below for comparison.
[[record]]
compound = "CNc1cc(-c2ccc3cc(C#N)cnn23)ncc1-c1nnc(C23CCC(NC(=O)CCCCCNc4ccc5c(c4)C(=O)N(C4CCC(=O)NC4=O)C5=O)(CC2)CC3)s1 (centres unmarked)"
measured_attribute = "IC50"
endpoint_value = 1.4

[[record]]
compound = "CNc1cc(-c2ccc3cc(C#N)cnn23)ncc1-c1nnc(N2CC3(CCN(C(=O)CN4CCN(c5ccc6c(c5)C(=O)N(C5CCC(=O)NC5=O)C6=O)CC4)CC3)C2)s1 (centres unmarked)"
measured_attribute = "IC50"
endpoint_value = 0.5

[[record]]
compound = "Cc1ncsc1-c1ccc([C@H](C)NC(=O)[C@@H]2C[C@@H](O)CN2C(=O)[C@@H](NC(=O)CCCCCCCC(=O)N2CCN(c3nnc(-c4cnc(-c5ccc6cc(C#N)cnn56)cc4NC(C)C)s3)CC2)C(C)(C)C)cc1"
measured_attribute = "IC50"
endpoint_value = 13.4

[[record]]
compound = "CNc1cc(-c2ccc3cc(C#N)cnn23)ncc1-c1nnc([C@H]2CC[C@H](NC(=O)C3CCN(c4ccc5c(c4)C(=O)N(C4CCC(=O)NC4=O)C5=O)CC3)CC2)s1 (some centres unmarked)"
measured_attribute = "IC50"
endpoint_value = 0.9


Please turn your attention to the following entry.
Incoming: If you can, please state the reported IC50 value of Cc1ncsc1-c1ccc(CNC(=O)[C@@H]2C[C@@H](O)CN2C(=O)[C@@H](NC(=O)C2(F)CC2)C(C)(C)C)c(OCCOCCOCCOCCC(=O)N2CCN(c3nnc(-c4cnc(-c5ccc6cc(C#N)cnn56)cc4NC(C)C)s3)CC2)c1 .
Outgoing: 4.6

Origin of values: patent US12528814B2
